Kindly supply the reported growth values for the records listed here.
Test system: SN12C renal
method_notes: NCI-60 one-dose screen, 48 h (100 = growth as untreated, 0 = no growth, -100 = all killed)
measurement_parameters: 10 µM unless noted
Description: Growth inhibition of the SN12C human tumor cell line is measured as a screen for anti-cancer activity. Cells are grown in 96 well plates and exposed to the test compound for 48 hours. Compounds are tested at a single concentration, which is 10^-5 M for most compounds. The reported endpoint is percent growth (GI% or GIPRCNT), where numbers from 0 - 100% represent growth inhibition, and numbers from -100% - 0 represent cell death. For example, a value of 40 represents 60% growth inhibition. […]
Compounds without any hit were thinned out: in the full panel of roughly 83,000, 20% have a hit. The source made the active and inactive calls. How the source made its calls: active means growth percent below 10; inactive means the rest.

Guide cases for growth, answers given:
INSERT INTO measurements (compound_smiles, measured_endpoint, reported_measurement) VALUES
  ('COc1ccc2[nH]c(=O)c(CNc3ccc(Nc4nccc(-c5ccc(Cl)cc5)n4)cc3)cc2c1', 'growth', '87.1% (inactive)'),
  ('COc1ccc(/C=C/C(=O)c2cccc(NS(C)(=O)=O)c2)cc1', 'growth', '82.8% (inactive)'),
  ('COc1ccc(Cl)cc1Nc1nc(C(F)(F)F)ccc1C(=O)N/N=C/c1c(Cl)cccc1Cl', 'growth', '63% (inactive)');

// input: 2 molecules below; output: growth for each
1. NC(=N\N=C/Cc1ccccc1)/C(N)=N\N=C\Cc1ccccc1
2. O=[N+]([O-])c1ccc(NS(=O)(=O)c2ccc(Cl)c(Cl)c2)cc1

Output:
["102% (inactive)", "60.9% (inactive)"]

----------
Tested on: SK-OV-3 ovarian
method_notes: NCI-60 one-dose screen, 48 h (100 = growth as untreated, 0 = no growth, -100 = all killed)
measurement_parameters: 10 µM unless noted
About 83,000 compounds went through this panel and 20% of them were active in at least one assay; those are over-represented in the sample as a whole.
Cut-off 60% on growth: below means class 1, at or above means class 0.

Reference set, count: 2
INSERT INTO measurements (compound, class_label) VALUES
  ('COc1cc(/C=C2\CN(C)CC3=C2Nc2nc(SC)[nH]c(=O)c2C3c2cc(OC)c(OC)c(OC)c2)cc(OC)c1OC (stereo not given)', 'class 0'),
  ('COc1cnc2c(c1)C(=O)c1c-2n(CCCN2CCCC2)c(=O)c2cc(F)ccc12', 'class 1');

Input: Determine if `CCSc1nc(-c2ccco2)n2nc(-c3ccco3)cc2n1` shows growth strictly lower than 60%.
Output: class 0

Input: Determine if `CCOC(=O)Nc1ccc2c3c(cccc13)-c1ccccc1-2` shows growth strictly lower than 60%.
Output: class 0

----------
Kindly supply the reported growth values for the records listed here.
Test system: NCI-H322M lung
method_notes: NCI-60 one-dose screen, 48 h (100 = growth as untreated, 0 = no growth, -100 = all killed)
measurement_parameters: 10 µM unless noted
About 83,000 compounds went through this panel and 20% of them were active in at least one assay; those are over-represented in the sample as a whole. Activity calls are given as the source filed them. How the source made its calls: active means growth percent below 10; inactive means the rest.

Guide cases for growth, answers given:
INSERT INTO assay_data (compound, assay_system, reported_measurement) VALUES
  ('Cc1cccc2nnc(-c3ccccc3)n12', 'NCI-H322M lung', '104% (inactive)'),
  ('COc1ccc(NS(=O)(=O)N2CCCCC2)cc1', 'NCI-H322M lung', '102% (inactive)'),
  ('CCCCCCCCCCN1CCC(N2CCCCC2)CC1', 'NCI-H322M lung', '88% (inactive)'),
  ('O=CN1N=C(c2ccc(Nc3ccnc4cc(Cl)ccc34)cc2)CC1c1ccc(Cl)cc1 (stereo not drawn)', 'NCI-H322M lung', '44.1% (inactive)'),
  ('Nc1nc(NC2CC2)c2ncn(C3C=CC(CO)C3)c2n1 (stereo not drawn)', 'NCI-H322M lung', '94% (inactive)'),
  ('O=c1c2ccccc2c2nccn2c2cc(Cl)ccc12', 'NCI-H322M lung', '129% (inactive)'),
  ('O=C(N/N=C/c1ccc(Cl)cc1Cl)c1ccccc1Nc1cccc(C(F)(F)F)c1', 'NCI-H322M lung', '86.2% (inactive)'),
  ('N#Cc1c(-c2ccc(F)cc2)n2c(nc1=O)SC(=O)C2=O', 'NCI-H322M lung', '104% (inactive)'),
  ('Cc1cc(Cl)ccc1Nc1nc(C(F)(F)F)ccc1C(=O)N/N=C/c1ccc(Cl)cc1', 'NCI-H322M lung', '-1.86% (active)'),
  ('CSc1nc(-c2ccc(O)cc2O)c2c(=O)[nH]c(Nc3ccc(S(=O)(=O)Nc4nc(C)cc(C)n4)cc3)nc2n1', 'NCI-H322M lung', '108% (inactive)');

// input: 2 compounds below; output: growth for each
1. CCCCCCCCCCCCC1CCCC(C)C1 (stereo not drawn)
2. CC(C)Sc1nc(Cl)c(C#N)c(-c2ccc(F)cc2)n1

Output:
1: 95% (inactive); 2: 102% (inactive)

// input: 6 compounds below; output: growth for each
1. N/C(=N\c1nc2ccccc2s1)NC(=O)Nc1ccccc1Cl
2. COc1ccc(-c2c3c(N)nc(-c4ccncc4)nc3nc3c2c(C)nn3-c2ccccc2)cc1
3. OC(c1ccccc1)C(NCc1ccccc1)c1ccccc1 (stereo not drawn)
4. O=c1[nH]cc(Nc2cc(Cl)c3nonc3c2[N+](=O)[O-])c(=O)[nH]1
5. O=[N+]([O-])c1ccc(NS(=O)(=O)c2ccc(Cl)c(Cl)c2)cc1
6. O=C(CC(C(=O)c1ccccc1)N1CCN(Cc2ccccc2)CC1)c1ccccc1 (stereo not drawn)

Output:
1: 45% (inactive); 2: 74.3% (inactive); 3: 97.8% (inactive); 4: 110% (inactive); 5: 111% (inactive); 6: 112% (inactive)

// input: 2 compounds below; output: growth for each
1. CCOC(=O)C1C(=O)NC(C(=O)OCC)(C(=O)OCC)C1CC (stereo not drawn)
2. COc1cc(NC(=O)NCc2ccco2)ccc1-c1ccc(NC(=O)NCc2ccco2)cc1OC

Output:
["119% (inactive)", "49.5% (inactive)"]
